Origin of measurements: patent US8076359B2

# system: renin in human plasma (Homo sapiens, UniProt P00797)
# Sequence (P00797 67-406): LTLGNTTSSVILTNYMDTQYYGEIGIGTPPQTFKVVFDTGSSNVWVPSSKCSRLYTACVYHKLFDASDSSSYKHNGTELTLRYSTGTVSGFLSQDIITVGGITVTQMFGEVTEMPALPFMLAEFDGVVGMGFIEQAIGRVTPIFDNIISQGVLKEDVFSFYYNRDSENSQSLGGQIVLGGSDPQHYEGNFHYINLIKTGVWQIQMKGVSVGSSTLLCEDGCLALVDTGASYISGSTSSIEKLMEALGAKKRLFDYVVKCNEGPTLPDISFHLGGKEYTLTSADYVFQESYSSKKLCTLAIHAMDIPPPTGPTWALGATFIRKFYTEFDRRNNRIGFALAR
# run_description: Inhibition of renin in human plasma (enzymatic in vitro assay, Ang I detected by EIA)
# assay_setup: human plasma from 10 normal donors; human recombinant renin 3 pM; 37° C. for 2 h
pIC50: −log10 of the molar value.
value_kind: pIC50

1 = COCCCc1cc(CN(C(=O)[C@H]2CNCC[C@@H]2c2ccc(OCCOc3c(Cl)cc(C)cc3Cl)nc2)C2CC2)cc(OCCOC)c1
2 = COCCCc1cc(CN(C(=O)[C@H]2CNCC[C@@H]2c2ccc(OCCOc3c(Cl)cc(C)cc3Cl)cc2)C2CC2)cc(OC[C@@H]2C[C@H]2CO)c1
Request: For the pair 1 and 2 , which member has the lower pIC50 number? Respond using the label that marks the chosen record.
Result: 1
(1: 8.22, 2: 8.59)
